// provenance: paper PMC9927415

target or test system: panel of 203 kinases (Homo sapiens, UniProt Q8NI60)
Construct: purchased DiscoverX (KINOMEscan)
Sequence (Q8NI60 163-647): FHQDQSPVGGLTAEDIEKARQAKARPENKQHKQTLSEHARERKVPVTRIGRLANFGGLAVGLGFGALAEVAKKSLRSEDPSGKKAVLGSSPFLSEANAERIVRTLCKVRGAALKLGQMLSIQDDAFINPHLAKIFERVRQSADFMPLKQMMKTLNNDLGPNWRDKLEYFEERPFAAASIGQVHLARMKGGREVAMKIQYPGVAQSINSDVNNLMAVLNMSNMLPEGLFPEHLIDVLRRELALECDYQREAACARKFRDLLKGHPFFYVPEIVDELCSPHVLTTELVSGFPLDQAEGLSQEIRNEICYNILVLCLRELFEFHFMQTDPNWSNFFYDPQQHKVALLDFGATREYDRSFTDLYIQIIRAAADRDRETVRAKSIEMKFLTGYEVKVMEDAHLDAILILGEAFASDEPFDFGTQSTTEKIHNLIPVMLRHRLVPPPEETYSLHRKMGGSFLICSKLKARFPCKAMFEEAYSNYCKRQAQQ
procedure text: KINOMEscan competitive binding, whole panel
condition: 10 µM, n=1; kinase ADCK3; read-out: Percent inhibition ADCK3
outcome measure: inhibition at 10 µM (%)
One number for each entry, in %.

Would you please look over these solved cases?
>>> measurement("COc1ccc(Nc2nccc(-c3cnn4ncccc34)n2)cc1")
99.5
>>> measurement("CN1CCN(c2ccc(Nc3nccc(-c4cnn5ncccc45)n3)cc2C#N)CC1")
93.7
>>> measurement("Cc1ccc(O)cc1Nc1ccnc(Nc2cccc(C(N)=O)c2)n1")
0

Batch lookup, inhibition at 10 µM per entry.
1. Fc1cccc(COc2ccc(Nc3ncnc4c3CN(CCN3CCOCC3)CC4)cc2Cl)c1
2. c1ccc(COc2cccc(-c3ccnc4[nH]ccc34)c2)cc1
3. Nc1ncc2c(-c3ccncc3)c[nH]c2n1
4. Clc1ccc(Nc2ncc(-c3ccccc3)s2)cc1

0
0
0
0

Give measured inhibition at 10 µM for every item shown.
1. C[C@@H](Oc1cc(-c2cnc3ccccn23)sc1C(N)=O)c1ccccc1Cl
2. COc1cc(Nc2nccc(-c3sc(N)nc3-c3cccc(NC(=O)c4c(F)cccc4F)c3)n2)cc(OC)c1OC
3. Cc1ccc(O)cc1N(C)c1ccnc(Nc2cccc(S(N)(=O)=O)c2)n1

0
100
91.1
